growth by entry:
Tested on: ACHN renal
Assay: NCI-60 one-dose screen, 48 h (100 = growth as untreated, 0 = no growth, -100 = all killed)
Settings: 10 µM unless noted
About 83,000 compounds went through this panel and 20% of them were active in at least one assay; those are over-represented in the sample as a whole.
Reply numerically in %, unit not repeated.

# MOLECULE, MEASUREMENT
data = [
    ("CC(C)(C)OC(=O)CC1(O)CCCCC1", 105),
    ("CC(=O)c1cc2ccccc2o1", 101),
    ("CCOc1ccc(/C=C\\C(=O)O)cc1", 109),
    ("CCNCc1ccccc1", 110),
    ("Nc1ccc(Cl)c(S(=O)(=O)O)c1", 97.2),
]

Ask | Query (molecule): CC(C)(C)OC(=O)NCCc1ccc(N)cc1 ; field requested: growth
Reply | 105

Ask | Query (molecule): Cc1cccc(Cl)c1N ; field requested: growth
Reply | 108

Ask | Query (molecule): COCCNC(C)=O ; field requested: growth
Reply | 110

Ask | Query (molecule): CCOC(=N)c1ccc(C(=N)OCC)cc1 ; field requested: growth
Reply | 102

Ask | Query (molecule): O=S(=O)(O)c1ccc2cc(O)ccc2c1 ; field requested: growth
Reply | 106

Ask | Query (molecule): COc1ccc(CCN=Cc2ccc(Cl)cc2)cc1OC ; field requested: growth
Reply | 106

Ask | Query (molecule): OCc1cccc(F)c1 ; field requested: growth
Reply | -0.315

Ask | Query (molecule): Cc1nc(Nc2ccc(Cl)cc2)c2cnn(-c3ccccc3)c2n1 ; field requested: growth
Reply | 105

Ask | Query (molecule): COc1ccc(/C=N/Nc2nc3ccccc3s2)cc1 ; field requested: growth
Reply | 90.6
